Form field: relative viability (one value per entry).
test system: HT1080; experiment: relative viability vs DMSO control (72 h) (fraction); higher = more viable cells; settings: 1.111 µM
A bare number is all that is needed in reply.

Worked examples follow.
# compound, relative viability
measured = [
    ("CCN(c1cc(-c2ccc(CN3CCOCC3)cc2)cc(C(=O)NCc2c(C)cc(C)[nH]c2=O)c1C)C1CCOCC1 [Tazemetostat]", 1.07),
    ("C=CC(=O)Nc1cccc(Nc2nc(Nc3ccc(N4CCN(C(C)=O)CC4)cc3OC)ncc2C(F)(F)F)c1 [Rociletinib]", 1.03),
    ("C[C@@H]1COC(Nc2ccc3ncnc(Nc4ccc(OCc5nccs5)c(Cl)c4)c3c2)=N1 [Varlitinib]", 1.02),
    ("COc1cc(Nc2c(C#N)cnc3cc(OCCCN4CCN(C)CC4)c(OC)cc23)c(Cl)cc1Cl [Bosutinib]", 1.05),
]

According to the records, this compound C#Cc1cccc(Nc2ncnc3cc(OCCOC)c(OCCOC)cc23)c1 [Erlotinib] displays relative viability of 1.1

Value of relative viability reported for the compound CN1CCN(CCOc2cc(OC3CCOCC3)c3c(Nc4c(Cl)ccc5c4OCO5)ncnc3c2)CC1 [Saracatinib] is 1.01

The recorded relative viability for entry FC(F)(F)c1ccc(CNc2ccc(Cc3c[nH]c4ncc(Cl)cc34)cn2)cn1 [Pexidartinib] equals 1.05

Looking up N#CCC1(n2cc(-c3ncnc4[nH]ccc34)cn2)CN(C2CCN(C(=O)c3ccnc(C(F)(F)F)c3F)CC2)C1 [Itacitinib] , I found its relative viability recorded as 0.993

# relative viability of CCCS(=O)(=O)N[C@H]1C[C@@H](N(C)c2ncnc3[nH]ccc23)C1 [Abrocitinib] = 1.02

relative viability for CCCCCCCCCCCCCCCCCCOP(=O)([O-])OC1CC[N+](C)(C)CC1 [Perifosine] is 1.04

For reference, reported relative viability for Cc1cc(Nc2ncc(Cl)c(Nc3ccccc3S(=O)(=O)C(C)C)n2)c(OC(C)C)cc1C1CCNCC1 [Ceritinib] stands at 0.983

So for Cc1nc(Nc2ncc(C(=O)Nc3c(C)cccc3Cl)s2)cc(N2CCN(CCO)CC2)n1 [Dasatinib] , the logged relative viability turned out to be 0.907

Entry C[C@H]1Oc2cc(cnc2N)-c2c(nn(C)c2C#N)CN(C)C(=O)c2ccc(F)cc21 [Lorlatinib] — recorded relative viability = 1.03

So, CO[C@H]1C[C@@H]2CC[C@@H](C)[C@@](O)(O2)C(=O)C(=O)N2CCCC[C@H]2C(=O)O[C@H]([C@H](C)C[C@@H]2CC[C@@H](O)[C@H](OC)C2)CC(=O)[C@H](C)/C=C(\C)[C@@H](O)[C@@H](OC)C(=O)[C@H](C)C[C@H](C)/C=C/C=C/C=C/1C [Rapamycin] ? Its relative viability was 0.905
